Source of measurements: paper PMC8286831

target-under-test: UniProtKB P0DTD1
assay-protocol: biochemical
Format: biochemical
experimental-context: IC50 No detergent
Where a name gives a salt, the structure may show the parent alone.
Classification by IC50 | ranges: lower band: < 4 µM; central band: ≥ 4 µM and < 10 µM; upper band: ≥ 10 µM

Previously resolved entries follow.
compound	answer-label
CC1(C)O[C@@H]2C[C@H]3[C@@H]4C[C@H](F)C5=CC(=O)C=C[C@]5(C)[C@@]4(F)[C@@H](O)C[C@]3(C)[C@]2(C(=O)CO)O1 [Fluocinolone Acetonide]	upper band
CCCCCCCC/C=C/CCCCCCCC(=O)O	central band
Cc1cc(OCCCS(C)(=O)=O)cc(C)c1-c1cccc(COc2ccc3c(c2)OC[C@H]3CC(=O)O)c1	upper band
Cc1cc(-c2ccc(/N=N/c3ccc4c(S(=O)(=O)O)cc(S(=O)(=O)O)c(N)c4c3O)c(C)c2)ccc1/N=N/c1ccc2c(S(=O)(=O)O)cc(S(=O)(=O)O)c(N)c2c1O	lower band
Nc1nc2c(c(=O)[nH]1)N(C=O)C(CNc1ccc(C(=O)N[C@@H](CCC(=O)O)C(=O)O)cc1)CN2 (stereo partly shown)	upper band
CC1(C)CCC(CN2CCN(c3ccc(C(=O)NS(=O)(=O)c4ccc(NCC5CCOCC5)c([N+](=O)[O-])c4)c(Oc4cnc5[nH]ccc5c4)c3)CC2)=C(c2ccc(Cl)cc2)C1	upper band
CCCCCCCC/C=C\CCCCCCCC(=O)O	central band
Cc1cc2c(C(C)C)c(O)c(O)c(C=O)c2c(O)c1-c1c(C)cc2c(C(C)C)c(O)c(O)c(C=O)c2c1O	lower band

In plain terms, what class is "Cc1ccc(C(=O)Nc2ccc(S(=O)(=O)O)c3cc(S(=O)(=O)O)cc(S(=O)(=O)O)c23)cc1NC(=O)c1cccc(NC(=O)Nc2cccc(C(=O)Nc3cc(C(=O)Nc4ccc(S(=O)(=O)O)c5cc(S(=O)(=O)O)cc(S(=O)(=O)O)c45)ccc3C)c2)c1" ? lower band

// return the class label for "COc1c2c3c4c(c(OC)c(=O)c5c(O)cc(OC)c(c6c(OC)cc(O)c(c1=O)c63)c54)[C@@H](C(C)=O)[C@@](C)(O)C2" upper band

Form field 'band' for CC1=C(/C=C/C(C)=C/C=C/C(C)=C/C(=O)Nc2ccc(O)cc2)C(C)(C)CCC1 [Fenretinide] central band

Which IC50 band matches "CC/C=C\C/C=C\C/C=C\C/C=C\C/C=C\CCCC(=O)O" ? upper band

Category of CO/N=C(\C(=O)N[C@@H]1C(=O)N2C(C(=O)O)=C(CSC(=O)c3ccco3)CS[C@H]12)c1csc(N)n1 [Ceftiofur HCl] , please. upper band

Class (by measured IC50) for "Cc1cc(O[C@@H](CCC(F)(F)F)c2ccc(C(=O)NCCC(=O)O)cc2)cc(C)c1-c1ccc(C(C)(C)C)cc1" central band
